Listed here: items and their measured IC50.
tested on: KASUMI-1 cells; assay: MTT cell killing assay; type: cell-based, Human; settings: KASUMI-1, MTT after 48 hours; daunorubicin or daunorubicin-loaded aptamer alone; read-out: IC50 (pM) Free
Please respond with the number in pM and leave the unit unwritten.

Qu. Reported IC50, molecule #1: CD117-binding aptamer, SEQ ID NO: 3 (nucleic acid, listed as DNA, chemistry not fully specified) GAGGCATACCAGCTTATTCAAGGGGCCGGGGCAAGGGGGGGGTACCGTGGTAGGACATAGTAAGTGCAATCTGCGAA : ____
Ans. 531

Qu. Endpoint output: IC50 of ABWT050902: CD117-binding aptamer, SEQ ID NO: 1; FAM-labeled or daunorubicin-loaded in tests (nucleic acid, FAM label or daunorubicin loading in tests, chemistry not fully specified) ATCCAGAGTGACGCAGCACCGCCCATGTCGAATAGGTGCCACGTAGGGACTTGGACACGGTGGCTTAGT . Value?
Ans. 529

Qu. IC50 for ZW25: CD123-binding aptamer, SEQ ID NO: 4 (nucleic acid, listed as DNA, chemistry not fully specified) TGCGTGTGTAGTGTGTCTGGGCTACATCGATGAGCTGCCTAGGGTCCCTCTTAGGGATTTGGGCGGG ?
Ans. 3540

Qu. Suppose we examine the molecule CY30: CD123-binding aptamer, SEQ ID NO: 5 (nucleic acid, listed as DNA, chemistry not fully specified) TGCGTGTGTACTGTGTCTGGTCCCGTAGCTACTAGCGAACTCCCTGCCTCTTAGGGATTTGGGCGG ; what IC50 value has been reported?
Ans. 5070

Others:
Qu. Query (molecule): ABWT050904: CD117-binding aptamer, SEQ ID NO: 2 (nucleic acid, listed as DNA, chemistry not fully specified) ATCCAGAGTGACGCAGCACGAGCCTTGTGTCGTTCGGAGTGCTGGTCCACGACTACTATTGGACACGGTGGCTTAGT ; field requested: IC50
Ans. 976

The reported measurements were obtained from patent US20250388907A1.
